Target Desc: T1, human interferon alpha receptor 1 (IFNAR-1) on cells (Daudi, U937, human peripheral blood mononuclear cells) (human, UniProt P17181 28-557)
T1 sequence (looked up): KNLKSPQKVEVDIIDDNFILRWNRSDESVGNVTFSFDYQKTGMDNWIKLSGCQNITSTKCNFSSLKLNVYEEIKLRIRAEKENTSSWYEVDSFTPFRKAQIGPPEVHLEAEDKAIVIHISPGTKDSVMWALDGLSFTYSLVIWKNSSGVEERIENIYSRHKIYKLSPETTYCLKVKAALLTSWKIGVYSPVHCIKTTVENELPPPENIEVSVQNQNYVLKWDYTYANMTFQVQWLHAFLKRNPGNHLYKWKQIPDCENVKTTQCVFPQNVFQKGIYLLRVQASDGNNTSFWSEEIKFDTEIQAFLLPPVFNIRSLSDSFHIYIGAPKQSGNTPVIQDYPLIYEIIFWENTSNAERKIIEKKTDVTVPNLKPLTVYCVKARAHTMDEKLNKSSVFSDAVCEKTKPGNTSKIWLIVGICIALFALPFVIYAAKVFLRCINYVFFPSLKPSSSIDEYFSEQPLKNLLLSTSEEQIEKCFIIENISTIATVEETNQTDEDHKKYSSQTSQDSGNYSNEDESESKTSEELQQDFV
Experiment: cell-based or functional assay
# Cell Proliferation (Daudi) EC50, blocking of IFN omega listing for each entry below
Express your answer in nM, writing the number without its unit.

{"Binder": "human monoclonal antibody 11E2 (antibody, IgG1, V domains shown) VH: EVQLVQSGAEVKKPGESLKISCKGSGYIFTNYWIAWVRQMPGKGLESMGIIYPGDSDIRYSPSFQGQVTISADKSITTAYLQWSSLKASDTAMYYCARHDIEGFDYWGRGTLVTVSS VL: EIVLTQSPGTLSLSPGERATLSCRASQSVSSSFFAWYQQKPGQAPRLLIYGASSRATGIPDRLSGSGSGTDFTLTITRLEPEDFAVYYCQQYDSSAITFGQGTRLEIK", "Endpoint Unit": "nM", "Endpoint Result": 0.3}

// below: Cell Proliferation (Daudi) EC50, blocking of IFN omega requested for another binder
Prompt line: For the binder murine anti-IFNAR-1 antibody 64G12 (ECACC Deposit No. 92022605) (antibody, V domains shown) VH: QVTLKESGPGILKPSQTLSLTCSFSGFSLSTSGMGIGWIRQPSGKGLEWLAHIWWDDDKYYNPSLKSQLTISRDTSTNQVFLNITSVDTVDTATYYCGRNYYPYDAWFDYWGQGTLVTVS VL: EIVLTQSPTTMAASPGEKITITCSASSSINSNHLHWYQQKPGFSPKVLIYRTSILASGVPTRFSGSGSGTSYSLTIGTMEAEDVATYYCQQGSNIPFTFGSGTELEIKR , what Cell Proliferation (Daudi) EC50, blocking of IFN omega is on record?
Response line: 5.5
